# test target: T1, HCoV-HKU1 spike antigens (bead panel) (HCoV-HKU1, UniProt Q5MQD0 13-1300)
# T1 sequence: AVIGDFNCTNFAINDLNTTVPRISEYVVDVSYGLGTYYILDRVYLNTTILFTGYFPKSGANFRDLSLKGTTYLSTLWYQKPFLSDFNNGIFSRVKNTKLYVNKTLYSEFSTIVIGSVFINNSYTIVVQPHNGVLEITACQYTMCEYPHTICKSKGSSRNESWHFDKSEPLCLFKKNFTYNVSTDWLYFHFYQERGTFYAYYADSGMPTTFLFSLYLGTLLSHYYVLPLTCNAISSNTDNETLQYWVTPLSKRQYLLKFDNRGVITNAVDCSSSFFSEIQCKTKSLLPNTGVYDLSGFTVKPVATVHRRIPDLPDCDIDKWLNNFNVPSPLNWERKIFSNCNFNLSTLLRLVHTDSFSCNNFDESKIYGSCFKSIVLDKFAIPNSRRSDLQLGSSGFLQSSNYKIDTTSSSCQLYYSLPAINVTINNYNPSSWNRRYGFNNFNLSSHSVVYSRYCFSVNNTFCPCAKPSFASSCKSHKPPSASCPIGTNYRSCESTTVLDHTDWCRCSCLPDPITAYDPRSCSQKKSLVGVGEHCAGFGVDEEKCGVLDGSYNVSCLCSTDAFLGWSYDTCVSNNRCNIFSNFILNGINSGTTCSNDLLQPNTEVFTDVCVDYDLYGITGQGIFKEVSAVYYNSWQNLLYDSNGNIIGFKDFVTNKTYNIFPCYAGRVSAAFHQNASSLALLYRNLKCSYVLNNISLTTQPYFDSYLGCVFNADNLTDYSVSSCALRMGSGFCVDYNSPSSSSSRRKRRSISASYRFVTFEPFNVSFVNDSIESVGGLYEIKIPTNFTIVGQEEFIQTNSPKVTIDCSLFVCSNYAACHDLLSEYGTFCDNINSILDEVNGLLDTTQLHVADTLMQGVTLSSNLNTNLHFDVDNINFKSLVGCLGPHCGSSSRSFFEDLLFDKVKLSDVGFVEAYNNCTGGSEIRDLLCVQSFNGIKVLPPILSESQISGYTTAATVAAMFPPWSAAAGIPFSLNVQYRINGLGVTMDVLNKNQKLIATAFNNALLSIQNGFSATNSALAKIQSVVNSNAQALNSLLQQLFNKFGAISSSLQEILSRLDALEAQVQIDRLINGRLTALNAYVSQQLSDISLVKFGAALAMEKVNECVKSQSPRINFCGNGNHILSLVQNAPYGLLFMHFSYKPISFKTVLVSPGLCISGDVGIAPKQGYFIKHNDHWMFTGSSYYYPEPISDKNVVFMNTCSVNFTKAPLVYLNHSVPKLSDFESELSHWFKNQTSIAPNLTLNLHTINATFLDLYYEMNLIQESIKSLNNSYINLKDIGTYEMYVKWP
# assay name: multiplex bead assay
experimental endpoint: binding result

Field: example entries. Status: answers known.
[[record]]
binder = "COV_2100 (antibody, V domains shown, human IgG1) VH: EVQLVESGGGLVQPGGSLRLSCAASGFTFSSYDMYWVRQATGKGLEWVSAIGTAGDTYYPGSVKGRFTISRENAKNSLYLRMNSLRAGDTAVYFCARADKNTAMFFDYWGQGTLVTVSS VL: DIQMTQSPSSLSASVGDRVTITCRASQNINNFLHWYQQKPGNAPKLLIYAASTLQSGVPSRFSGSGSGTDFTLTISSLQPEDFATYYCQQSYSTPGGTFGGGTKVEIK"
reported_measurement = "no binding"

[[record]]
binder = "COV_2054 (antibody, V domains shown, human IgG1) VH: EVQLVESGGGVLQPGRSLRLSCAASGFTFNNYALHWVRQAPGKGLEWVAVISYDGSSKYYADSVRGRLTISRDNSRNTLYLQMNSLRPEDTAIYYCARDGDGLWLGESFYFDDWGQGTLVTVSS VL: DIQMTQSPSTLSASVGDRVIITCRASQSISSWLAWYQQKPGKAPKLLIYEASTLQSGVPSRFSGSGSGTEFTLTISSLQPDDSATYYCQQYNSYPVHFSQGTKLEIK"
reported_measurement = "no binding"

[[record]]
binder = "COV_2196 (antibody, V domains shown, human IgG1) VH: QVQLVQSGAEVKKPGASVKVSCKVSGYTLIELSMHWVRQAPGKGLEWMGGFDPEDAKTIYAQKFQGRVTMTEDTSTDTAYMELSSLTFEDTAVYYCATTPAFMAAAGDFDYWGQGTLVTVSS VL: QPVLTQPSSVSVSPGQTATITCSGDVLAKKYARWFQQKPGQAPMLVIYKDTERPSGIPERFSGSSSGTTVTLTINGAQVEDEADYYCYSAAAWVFGGGTKLTVL"
reported_measurement = "no binding"

[[record]]
binder = "COV_2103 (antibody, V domains shown, human IgG1) VH: EVQLVESGGGVVQPGRSLRLSCGASGFTFSSYGIHWVRQAPGKGLDWVAVIWHDGSQKYYGDSVKGRFTISRDNSKNTLYLQMNRLRAEDTAVYYCARDSGDDYDSSGYPIGNAFDLWGQGTMVTVSS VL: DIQMTQSPSTLSASVGDRVTITCRASQFINSWLAWYQQKPGKAPKLLIYKASSLETGVPSRFSGSGSGTEFTLTISSLQPDDFATYYCQQYNTYSFTFGPGTKVDIK"
reported_measurement = "no binding"

[[record]]
binder = "COV_2056 (SEQ ID NO:792/797) (antibody, V domains shown) VH: EVQLVESGGGVVQPGRSLRLSCAASGFTFSIYGMHWVRQAPGKGLEWVALISYDGTNKYYADSVKGRFSISRDDSKNTLYLQMNSLRPEDTAVYYCAKVLMMGDSSGFSLGDAFDIWGQGTMVTVSS VL: DIQMTQSPSSVSASVGDRVTITCRASQGISNWLAWYQQKPGKAPKLLIYAASSLQSGVPSRFSGSVSGTDFTLTISSLQPEDFATYYCQQANSFPLTFGGGTKVDIKR"
reported_measurement = "no binding"


query: Give its binding result value. Item: COV_2064 (antibody, V domains shown, human IgG1) VH: EVQLVESGGGLVQPGGSLRLSCTASGFTFNNNWMHWVRQVPGKGLVWVSRINTDESSTSYADSVKGRFIISRDNAKNTLYLQMNSLRVEDTAVYYCARSTAQYDIWTGYYYYMDVWGKGTTVTVSS VL: DIQMTQSPSTLSASVGDRVTISCRASQSISTWLAWYQQKPGKAPNLLIYGASNLGSGVPSRFSGGGSGTEFTLTISSLQSDDFATYYCQRYNSFPYTFGQGTKLEIKR
result: no binding

query: And for COV_2143 (antibody, V domains shown, human IgG1) VH: EVQLVESGGGVVQPGRSLRLSCAASGFTFNSFAMLWVRQAPGKGLEWVALFSYDGSNKYYADSVKGRFTISRDNSKNTLYLQMNNLRAVDTAVYYCARASPYDINGYYLHRIAFDIWGQGTMVTVSS VL: QSVLMQPPSVSGAPGQRVTISCTGSSSNIGAGYDVHWYQQLPGTAPKLLMYGNSNRPSGVPDRFSGSKSGTSASLAITGLQAEDEADYYCQSYDSGLSGWVFGGGTKLTVLG ?
result: no binding

query: And for COV_1131 (antibody, V domains shown, human IgG1) VH: QVQLQESGPGLVKPSETLSLTCSVSGGSISSYYWSWIRQPPGKGLEWIGYISYSGSTNYNPSLKSRVTISVDTSKNQFSLKLSSVTAADTAVYYCARLGFGGIYPSLYDAFDIWGQGTMVTVSS VL: DIQMTQSPSSLSASVGDRVTITCRASQTISSYLNWYQQKPGKAPNLLIYDASSLQRGVPSRFSGSGSGTDFTLTISSLQPEDFATYYCQQSYSTPRTFGQGTKVEIKR ?
result: no binding

query: And for COV_2093 (antibody, V domains shown, human IgG1) VH: EVQLVESGGGLVQPGGSLRLSCAASGFMFNRFWMSWVRQAPGKGLEWVTNIKQDGSEKNYVDSVKGRFTISRDNAKNSLYLQMNSLRAEDTAVYYCARDGLYYDFRSPSPFYGMDVWGQGTTVTVSS VL: DIQMTQSPSSLSASVGDRVTITCRASQSISSYLNWYQHKSGKAPKLLIYAASRLQSGVPSRFSGSGSGTDFTLTIVSLQPEDLATYYCQQSYSTPRTFGGGTKVEIKR ?
result: no binding

query: And for COV_2137 (antibody, V domains shown, human IgG1) VH: EVQLVESGGGLVKPGGSLRLSCAASGFTFSSYTMNWVRQAPGKGLEWVSSISSGSSFIYYADSLRGRFTISRDNAKNSLYLQMNSLRAEDTAVYYCARAPEPQSVIYAYWYFDLWGRGTLVTVSS VL: QSALTQPASVSGSPGQSITFSCTGTSSDVGSYNLVSWYQQYPGKAPKLMIYEVNKRPSGVSNRFSGSKSGNTASLTISGLQAEDEADYYCCSYAGSSTFYVFGTGTKVTVLG ?
result: no binding
